Study system: human S1P1 receptor (Homo sapiens, UniProt P21453)
Construct: membranes from cells stably expressing the S1P1 receptor
Sequence (P21453 whole entry): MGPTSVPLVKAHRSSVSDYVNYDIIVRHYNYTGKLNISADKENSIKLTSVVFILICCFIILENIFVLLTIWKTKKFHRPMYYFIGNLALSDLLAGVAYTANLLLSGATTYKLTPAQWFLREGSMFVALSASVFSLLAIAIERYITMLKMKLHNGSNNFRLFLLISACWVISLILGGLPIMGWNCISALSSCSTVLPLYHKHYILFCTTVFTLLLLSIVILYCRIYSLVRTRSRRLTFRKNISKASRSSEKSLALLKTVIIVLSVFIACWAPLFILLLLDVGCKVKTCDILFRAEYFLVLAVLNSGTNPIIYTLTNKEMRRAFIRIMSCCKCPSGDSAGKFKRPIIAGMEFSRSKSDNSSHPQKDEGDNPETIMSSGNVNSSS
Test method notes: GTP γ35S binding assay for S1P1 activity
Test settings: membranes of cells stably expressing the S1P1 receptor, agonist potency
Labelling field: enter Yes if recorded EC50 is less than 0.06 µM. Enter No if it equals or exceeds that cut-off.

COc1cccc(C(C#Cc2ccc(CN3CC(C(=O)O)C3)cc2)Cc2ccc(C)c(C)c2)c1 (stereo not shown) :: Yes
Cc1ccc(CC(C#Cc2ccc(CN3CC(C(=O)O)C3)cc2)c2ccc(Cl)cc2)cc1C (stereo not shown) :: No

Query: Record Cc1ccc(CC(C#Cc2ccc(CN3CC(C(=O)O)C3)cc2)c2cccc(Cl)c2)cc1C (stereo not shown) : is its EC50 strictly below 0.06 µM?
Reply: Yes

Query: Another compound to look at: Cc1ccc(CC(C#Cc2ccc(CN3CC(C(=O)O)C3)cc2C)c2cccc(Cl)c2)cc1C (stereo not shown)
Reply: No

Query: Do the same for O=C(O)C1CN(Cc2ccc(C#CC(Cc3ccc(Cl)c(Cl)c3)c3cccc(F)c3)cc2)C1 (stereo not shown) please
Reply: No

Query: Would you mind doing Cc1cccc(C(C#Cc2ccc(CN3CC(C(=O)O)C3)cc2)Cc2ccc(C)c(C)c2)c1 (stereo not shown) as well?
Reply: No
